- Tested on: HepG2 cells
- Measurement notes: Cytotoxicity assay (Alamar Blue), HepG2
- Type: cell-based, human
- Test conditions: Homo sapiens, HepG2, 72 h, read-out: Mammalian Cell IC50, HepG2
Experimental readout: pIC50
One number for each entry, as −log10 of the molar value.

Challenge: Which pIC50 value belongs to CCCN1CC2C3CCC(C(=O)Nc4cc(C(C)(C)C)ccc4C(C)(C)C)[C@@]3(C)CCC2[C@@]2(C)CCC(=O)C=C12 (stereo partly shown) [compound 2] ?
Response given: 4.68

---

Task for the reader: assign each of the following molecules its reported Fold ∆ of BDQ MIC, Mtb.
- Test system: Mtb (CDC1551)
- Measurement notes: BDQ potentiation MIC99 microbroth assay, Mtb
- Type: cell-based, Mycobacterium tuberculosis
- Test conditions: 6-azasteroid fixed at 20 μM; relative to BDQ MIC99 without azasteroid
One number for each entry, in fold.

Worked cases, answers included:
| Molecule | Experimental readout | Observed value |
| --- | --- | --- |
| CC(C)(C)c1ccc(C(F)(F)F)cc1NC(=O)C1CCC2C3CNC4=CC(=O)CC[C@]4(C)C3CC[C@]12C (stereo partly shown) | Fold ∆ of BDQ MIC, Mtb | 2 |
| CCCN1CC2C3CCC(C(=O)NC(c4ccc(F)cc4)c4ccc(F)cc4)[C@@]3(C)CCC2[C@@]2(C)CCC(=O)C=C12 (stereo partly shown) | Fold ∆ of BDQ MIC, Mtb | 128 |
| CCCN1CC2C3CCC(C(=O)Nc4cc(C(C)(C)C)ccc4C(C)(C)C)[C@@]3(C)CCC2[C@@]2(C)CCC(=O)C=C12 (stereo partly shown) | Fold ∆ of BDQ MIC, Mtb | 8 |
| CC(C)(C)c1ccc(C(C)(C)C)c(NC(=O)C2CCC3C4CNC5=CC(=O)CC[C@]5(C)C4CC[C@]23C)c1 (stereo partly shown) | Fold ∆ of BDQ MIC, Mtb | 16 |

Now let's try a different one.
Challenge: Notebook: pull reported Fold ∆ of BDQ MIC, Mtb for Mtb (CDC1551), entry C[C@]12CCC3C(CNC4=CC(=O)CC[C@@]43C)C1CCC2C(=O)NC(c1ccc(F)cc1)c1ccc(F)cc1 (stereo partly shown)
Response given: 32

---

- System: THP-1 cells
- Measurement notes: Cytotoxicity assay (Alamar Blue), THP-1
- Assay type: cell-based
- Test conditions: 72 h, read-out: Mammalian Cell IC50, THP1
Task for the reader: assign each of the following compounds its reported IC50.
One number for each entry, in µM.

| Compound | IC50 / µM |
| --- | --- |
| C[C@]12CCC3C(CNC4=CC(=O)CC[C@@]43C)C1CCC2C(=O)NC(c1ccc(OC(F)(F)F)cc1)c1ccc(OC(F)(F)F)cc1 (some centres unmarked) [compound 28] | 12.8 |
| C[C@]12CCC(=O)CC1NCC1C2CC[C@]2(C)C(C(=O)NC(c3ccc(F)cc3)c3ccc(C(F)(F)F)cc3)CCC12 (some centres unmarked) [compound 17] | 15.6 |
| CC(C)(C)c1ccc(C(C)(C)C)c(NC(=O)C2CCC3C4CNC5=CC(=O)CC[C@]5(C)C4CC[C@]23C)c1 (some centres unmarked) [compound 1] | 17.7 |

Below is a list of compounds. For each, state its recorded IC50.
1. C[C@]12CCC3C(CNC4=CC(=O)CC[C@@]43C)C1CCC2C(=O)NC(c1ccc(OC(F)F)cc1)c1ccc(OC(F)F)cc1 (some centres unmarked) [compound 22]
2. CN(C)CCN1CC2C3CCC(C(=O)NC(c4ccc(OC(F)(F)F)cc4)c4ccc(OC(F)(F)F)cc4)[C@@]3(C)CCC2[C@@]2(C)CCC(=O)CC12 (some centres unmarked) [compound 37]
3. C[C@]12CCC(=O)CC1NCC1C2CC[C@]2(C)C(C(=O)NC(c3ccc(OC(F)F)cc3)c3ccc(OC(F)F)cc3)CCC12 (some centres unmarked) [compound 23]

Response given:
1. 25.7
2. 4.1
3. 3.3
